target: T1, Rluc-ADGRG2-ΔGPS-β L679A (mouse, UniProt Q8CJ12-3 38-995, L679A); assay: FRET or BRET; HEK293 cells transfected with Rluc-ADGRG2-ΔGPS-β WT or mutants, stimulated by increasing concentrations of FITC-conjugated VPM-p15; saturation curves fitted with GraphPad; each experiment repeated 6 times; details: one partner purified
T1 construct: ADGRG2 (GPR64), mouse, ADGRG2-ΔGPS-β: the entire ECD removed; source: HEK293, transfected, on cells; not shown: Rluc, N-terminal, kept
T1 sequence (Q8CJ12 other isoform, or with tags, fused parts or gaps L679A | L679A | L679A L679A): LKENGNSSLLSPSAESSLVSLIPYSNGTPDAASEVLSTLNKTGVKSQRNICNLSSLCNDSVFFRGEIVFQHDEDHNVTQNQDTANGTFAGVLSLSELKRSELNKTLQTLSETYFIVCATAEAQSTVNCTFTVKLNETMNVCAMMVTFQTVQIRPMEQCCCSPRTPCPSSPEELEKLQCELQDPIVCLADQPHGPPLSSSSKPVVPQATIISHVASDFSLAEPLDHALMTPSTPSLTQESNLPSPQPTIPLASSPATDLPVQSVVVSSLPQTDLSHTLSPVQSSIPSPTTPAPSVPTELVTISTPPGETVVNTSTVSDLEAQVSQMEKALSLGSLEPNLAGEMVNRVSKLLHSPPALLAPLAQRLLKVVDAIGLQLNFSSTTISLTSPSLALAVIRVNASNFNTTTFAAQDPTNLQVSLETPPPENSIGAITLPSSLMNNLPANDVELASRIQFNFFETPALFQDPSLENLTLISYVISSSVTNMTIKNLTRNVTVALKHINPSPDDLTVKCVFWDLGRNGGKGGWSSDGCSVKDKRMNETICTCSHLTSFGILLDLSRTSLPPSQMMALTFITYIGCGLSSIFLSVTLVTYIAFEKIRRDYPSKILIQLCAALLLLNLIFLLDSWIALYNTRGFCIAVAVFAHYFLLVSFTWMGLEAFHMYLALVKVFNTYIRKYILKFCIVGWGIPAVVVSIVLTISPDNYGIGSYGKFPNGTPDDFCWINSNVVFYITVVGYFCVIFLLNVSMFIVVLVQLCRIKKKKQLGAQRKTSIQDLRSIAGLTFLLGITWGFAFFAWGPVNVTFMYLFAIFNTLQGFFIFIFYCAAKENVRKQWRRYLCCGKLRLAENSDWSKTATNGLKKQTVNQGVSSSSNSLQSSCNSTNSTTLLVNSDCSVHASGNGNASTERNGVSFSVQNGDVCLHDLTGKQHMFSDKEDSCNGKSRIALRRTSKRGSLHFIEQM
Non-standard residues stand in square brackets, D forms with d. Primed or numbered codes have the meaning given here. No end group written: not given here. Phe(4-Me) = Cc1ccc(C[C@H](N)C(=O)O)cc1; FITC′ = not defined here
RESULT_TYPE: EC50

VS[Phe(4-Me)]GILLDLSRTSLP-{FITC′} [FITC-conjugated VPM-p15 (ADGRG2 Stachel peptide p15 T1V/F3Phe(4-Me))]; 1160 nM
